targetDesc: Phosphatidylinositol 4,5-bisphosphate 3-kinase catalytic subunit alpha isoform (Homo sapiens)
Sequence (P42336 whole entry, canonical isoform): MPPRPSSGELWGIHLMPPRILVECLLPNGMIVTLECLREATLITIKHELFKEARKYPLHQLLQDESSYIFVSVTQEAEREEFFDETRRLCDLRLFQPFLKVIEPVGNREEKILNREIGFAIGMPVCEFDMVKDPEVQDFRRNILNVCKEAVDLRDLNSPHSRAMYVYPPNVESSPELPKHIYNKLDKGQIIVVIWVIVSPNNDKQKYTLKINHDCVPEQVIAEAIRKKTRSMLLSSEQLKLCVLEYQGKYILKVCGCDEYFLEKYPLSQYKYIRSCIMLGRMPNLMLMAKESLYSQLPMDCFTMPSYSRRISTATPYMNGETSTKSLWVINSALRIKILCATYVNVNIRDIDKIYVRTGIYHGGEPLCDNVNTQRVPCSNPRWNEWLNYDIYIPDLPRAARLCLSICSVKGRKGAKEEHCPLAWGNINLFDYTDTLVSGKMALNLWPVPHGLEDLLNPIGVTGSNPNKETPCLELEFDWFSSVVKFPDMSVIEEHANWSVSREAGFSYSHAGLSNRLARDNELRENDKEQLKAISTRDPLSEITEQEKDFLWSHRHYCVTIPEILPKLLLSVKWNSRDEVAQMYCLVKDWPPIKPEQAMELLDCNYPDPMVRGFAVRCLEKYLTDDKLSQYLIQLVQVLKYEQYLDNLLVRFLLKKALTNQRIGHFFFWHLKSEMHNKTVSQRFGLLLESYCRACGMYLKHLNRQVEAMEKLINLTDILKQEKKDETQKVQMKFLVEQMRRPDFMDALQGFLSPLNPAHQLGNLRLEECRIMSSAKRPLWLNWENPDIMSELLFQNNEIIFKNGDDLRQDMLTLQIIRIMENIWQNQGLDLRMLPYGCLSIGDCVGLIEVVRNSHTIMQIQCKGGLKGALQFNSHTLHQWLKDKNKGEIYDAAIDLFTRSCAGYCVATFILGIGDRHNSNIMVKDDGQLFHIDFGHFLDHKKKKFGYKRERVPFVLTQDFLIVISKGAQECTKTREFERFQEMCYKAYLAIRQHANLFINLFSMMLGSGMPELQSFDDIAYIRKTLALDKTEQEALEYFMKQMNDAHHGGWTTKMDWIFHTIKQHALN
protocolSummary: Inhibition of PI3Kalpha by continuous read time resolved fluorescence resonance energy transfer displacement assay
Entries and their IC50 values follow.
Give the number; nM is assumed, so skip it.

Reference set, count: 5
{"columns": ["compound", "IC50 (nM)"],
 "data": [
  ["Cc1nn2c(=O)cc(N3CCOC(C)C3)nc2n1Cc1cccc(Cl)c1Cl (racemic)", 320],
  ["CSc1nn2c(=O)cc(-c3ccncc3)nc2n1Cc1cccc(Cl)c1Cl", 400],
  ["CSc1nn2c(=O)cc(N3CCOCC3)nc2n1Cc1cccc(C(F)(F)F)c1C", 320],
  ["CSc1nn2c(=O)cc(N3CCOC(C)C3)nc2n1Cc1cccc(C(F)(F)F)c1C (stereo unspecified)", 1300],
  ["Cc1nn2c(=O)cc(N3CCOCC3)nc2n1Cc1cccc(Cl)c1Cl", 630]
]}

Here is the next item to consider.
# get_value(readout='IC50', item= Cc1c(Cn2c(C3CC3)nn3c(=O)cc(N4CCOCC4)nc23)cccc1C(F)(F)F ) 2500

====

Entries and their IC50 values follow.
targetDesc: Phosphatidylinositol 4,5-bisphosphate 3-kinase catalytic subunit gamma isoform (Homo sapiens, UniProt P48736)
Sequence (P48736 whole entry, canonical isoform): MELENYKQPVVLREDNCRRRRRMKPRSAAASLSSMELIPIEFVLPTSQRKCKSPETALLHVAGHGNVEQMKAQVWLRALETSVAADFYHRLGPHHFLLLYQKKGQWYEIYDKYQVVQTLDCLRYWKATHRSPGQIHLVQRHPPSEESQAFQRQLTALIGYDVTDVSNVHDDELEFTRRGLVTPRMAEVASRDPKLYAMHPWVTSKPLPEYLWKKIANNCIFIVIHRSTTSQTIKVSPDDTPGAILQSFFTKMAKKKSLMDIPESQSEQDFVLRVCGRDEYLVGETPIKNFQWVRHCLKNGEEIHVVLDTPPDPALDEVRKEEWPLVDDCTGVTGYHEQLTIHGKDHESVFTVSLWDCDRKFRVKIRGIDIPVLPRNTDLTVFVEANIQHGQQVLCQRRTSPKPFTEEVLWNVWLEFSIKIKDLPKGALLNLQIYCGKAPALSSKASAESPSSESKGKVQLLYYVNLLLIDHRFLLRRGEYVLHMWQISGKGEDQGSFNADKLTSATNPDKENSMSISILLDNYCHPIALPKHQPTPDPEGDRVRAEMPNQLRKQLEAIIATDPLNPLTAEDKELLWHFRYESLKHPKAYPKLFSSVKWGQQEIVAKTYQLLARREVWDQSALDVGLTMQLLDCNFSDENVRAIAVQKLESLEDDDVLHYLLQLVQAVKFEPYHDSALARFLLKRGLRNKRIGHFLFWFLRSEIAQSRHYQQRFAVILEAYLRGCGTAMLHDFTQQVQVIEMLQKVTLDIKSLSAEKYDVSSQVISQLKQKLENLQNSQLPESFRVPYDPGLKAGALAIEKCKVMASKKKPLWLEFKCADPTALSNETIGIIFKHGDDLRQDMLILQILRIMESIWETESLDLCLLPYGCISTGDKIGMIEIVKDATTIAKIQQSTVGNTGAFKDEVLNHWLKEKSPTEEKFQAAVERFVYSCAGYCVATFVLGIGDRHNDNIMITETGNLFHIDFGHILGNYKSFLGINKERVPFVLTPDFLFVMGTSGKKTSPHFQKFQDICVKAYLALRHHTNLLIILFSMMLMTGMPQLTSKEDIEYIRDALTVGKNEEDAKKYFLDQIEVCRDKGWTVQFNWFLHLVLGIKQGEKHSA
protocolSummary: Inhibition of PI3Kgamma by continuous read time resolved fluorescence resonance energy transfer displacement assay
Give the number; nM is assumed, so skip it.

{"columns": ["compound", "IC50 / nM"],
 "data": [
  ["Cc1c(Cn2c(C)nn3c(=O)cc(N4CCOC(C)C4)nc23)cccc1C(F)(F)F (single isomer, unassigned; enantiomer 1)", 790],
  ["CSc1nn2c(=O)cc(N3CCOCC3)nc2n1Cc1cccc(C(F)(F)F)c1C", 1300]
]}

Here is the next item to consider.
# get_value(readout='IC50', item= Cc1c(Cn2c(C)nn3c(=O)cc(N4CCOCC4)nc23)cccc1C(F)(F)F ) 790

src = ChEMBL document CHEMBL2016550
